System tested: T1, Activin A (UniProt P08476 311-426)
T1 sequence (looked up): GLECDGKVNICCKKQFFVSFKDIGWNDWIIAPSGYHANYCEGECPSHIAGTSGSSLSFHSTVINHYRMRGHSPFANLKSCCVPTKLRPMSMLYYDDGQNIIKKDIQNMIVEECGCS
Measurement protocol: Biacore; ActRIIB-Fc captured by anti-hFc antibody, ligand injected
Readout kind: koff (s⁻¹)
All answers are understood in s⁻¹, so give the number only.

q: Which measured koff value corresponds to ActRIIB(20-134)-hFc (Fc fusion) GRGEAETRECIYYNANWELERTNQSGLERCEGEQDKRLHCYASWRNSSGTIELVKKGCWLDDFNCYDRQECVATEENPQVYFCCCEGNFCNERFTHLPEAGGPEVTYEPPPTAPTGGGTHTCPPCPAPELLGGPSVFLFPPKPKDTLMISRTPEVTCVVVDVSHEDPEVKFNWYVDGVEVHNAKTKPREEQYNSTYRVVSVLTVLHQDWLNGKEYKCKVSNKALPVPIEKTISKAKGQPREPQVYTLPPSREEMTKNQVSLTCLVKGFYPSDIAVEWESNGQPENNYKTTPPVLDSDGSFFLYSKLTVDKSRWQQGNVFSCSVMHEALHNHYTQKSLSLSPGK ?
a: 0.000159

q: Similarly, ActRIIB(R64K 20-129)-hFc (Fc fusion, not shown: human Fc domain (hFc)) GRGEAETRECIYYNANWELERTNQSGLERCEGEQDKRLHCYASWKNSSGTIELVKKGCWLDDFNCYDRQECVATEENPQVYFCCCEGNFCNERFTHLPEAGGPEVTYEPPGGG ?
a: 0.000628

q: Similarly, ActRIIB(P129S, P130R 20-134)-hFc (Fc fusion, kept as two molecules; not shown: human Fc domain (hFc)) GRGEAETRECIYYNANWELERTNQSGLERCEGEQDKRLHCYASWRNSSGTIELVKKGCWLDDFNCYDRQECVATEENPQVYFCCCEGNFCNERFTHLPEAGGPEVTYEPSRTAPTGGG ?
a: 0.000417

q: Similarly, ActRIIB(A24N 20-134)-hFc (Fc fusion, also called the A24N variant; not shown: human Fc domain (hFc)) GRGENETRECIYYNANWELERTNQSGLERCEGEQDKRLHCYASWRNSSGTIELVKKGCWLDDFNCYDRQECVATEENPQVYFCCCEGNFCNERFTHLPEAGGPEVTYEPPPTAPTGGG ?
a: 0.000346

q: Similarly, ActRIIB(R64K 20-134)-hFc (Fc fusion, not shown: human Fc domain (hFc)) GRGEAETRECIYYNANWELERTNQSGLERCEGEQDKRLHCYASWKNSSGTIELVKKGCWLDDFNCYDRQECVATEENPQVYFCCCEGNFCNERFTHLPEAGGPEVTYEPPPTAPTGGG ?
a: 0.000325
